# System: T1, human DLL3 (ACRO, DLL3-H52H4) (human, UniProt Q9NYJ7 27-479)
# T1 construct: bought antigen of the Biacore assay; construct not described
# T1 sequence (looked up): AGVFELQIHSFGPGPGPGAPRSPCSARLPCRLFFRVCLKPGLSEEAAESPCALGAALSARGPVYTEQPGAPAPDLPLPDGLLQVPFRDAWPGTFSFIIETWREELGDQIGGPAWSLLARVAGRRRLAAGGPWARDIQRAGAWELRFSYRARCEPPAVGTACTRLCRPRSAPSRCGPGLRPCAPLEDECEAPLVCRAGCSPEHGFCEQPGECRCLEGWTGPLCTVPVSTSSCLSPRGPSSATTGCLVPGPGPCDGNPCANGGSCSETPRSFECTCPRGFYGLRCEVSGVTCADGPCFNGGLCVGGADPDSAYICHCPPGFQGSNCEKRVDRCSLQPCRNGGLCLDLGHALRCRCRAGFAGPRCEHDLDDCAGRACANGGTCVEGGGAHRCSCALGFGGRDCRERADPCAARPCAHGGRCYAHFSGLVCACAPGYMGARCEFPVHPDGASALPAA
# Assay summary: SPR (Biacore 8K), antibody captured on Protein A chip, 1:1 fit

>  <Binder>
hAb100L2H4 (antibody, human IgG1, kappa, V domains shown) VH: EVQLVESGGGLVKPGGSLRLSCAASGFTFSDSGMHWIRQAPGKGLEWVAYISSGSSTIHYADTVKGRFTISRDNAKNSLYLQMNSLRAEDTAVYYCASPLYYYGRSYNGVAYWGQGTTVTVSS VL: DIQMTQSPSSLSASVGDRVTITCHASQNINVWLSWYQQKPGKIPKLLIYKASDLHTGVPSRFSGSGSGTDFTLTISSLQPEDVATYYCQQGQSYPLTFGGGTKVEIKR

>  <Endpoint unit>
M⁻¹ s⁻¹

>  <kon>
652000

$$$$
>  <Binder>
hAb100L1H4 (antibody, human IgG1, kappa, V domains shown) VH: EVQLVESGGGLVKPGGSLRLSCAASGFTFSDSGMHWIRQAPGKGLEWVAYISSGSSTIHYADTVKGRFTISRDNAKNSLYLQMNSLRAEDTAVYYCASPLYYYGRSYNGVAYWGQGTTVTVSS VL: DIQMTQSPSSLSASVGDRVTITCHASQNINVWLSWYQQKPGKVPKLLIYKASDLHTGVPSRFSGSGSGTDFTLTISSLQPEDVATYYCQQGQSYPLTFGGGTKVEIKR

>  <Endpoint unit>
M⁻¹ s⁻¹

>  <kon>
348000

$$$$
>  <Binder>
hAb100L2H1 (antibody, human IgG1, kappa, V domains shown) VH: EVQLVESGGGLVKPGGSLRLSCAASGFTFSDSGMHWIRQAPGKGLEWVSYISSGSSTIHYADTVKGRFTISRDNAKNSLYLQMNSLRAEDTAVYYCASPLYYYGRSYNAVAYWGQGTTVTVSS VL: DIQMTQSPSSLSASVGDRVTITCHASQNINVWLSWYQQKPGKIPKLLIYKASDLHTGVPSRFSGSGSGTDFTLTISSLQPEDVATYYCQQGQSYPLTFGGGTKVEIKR

>  <Endpoint unit>
M⁻¹ s⁻¹

>  <kon>
572000

$$$$
